Experiment description: in vitro
Run conditions: PAMPA, pH 7.4
Description: This assay utilized a 96-well plate assembly consisting of a filter plate pre-coated with polar brain lipids (donor plate) and a receiver plate (acceptor plate). […] In each well of the donor filtration plate (Multiscreen Filter Plate, PVDF with a pore size of 0.45 µm), 5 µL of the phospholipid mixture in n-dodecane (20 mg/mL) was carefully applied to form the artificial membrane. […] The concentrations of the tested compounds were determined by LC-MS. […]
Experimental endpoint: Papp at 20 h, 20 µM (×10⁻⁶ cm/s)
Return type: number; implicit unit ×10⁻⁶ cm/s.

input: Sample O=C(O)Cc1ccccc1Nc1c(Cl)cccc1Cl [Diclofenac, reference compound] — what was its Papp at 20 h, 20 µM?
output: 3.44

Provenance of the data: paper PMC11643744
